# credit: patent US20230310428A1

Reported pIC50 values are given for each entry in this list.
# target or system: various mutants of kinase EGFR (BaF3 cell lines stably transfected with kinase) (Homo sapiens, UniProt P00533, L858R)
# Construct: expressed in transfected cells; host or cells: BaF3
# Sequence (P00533 25-1210 L858R): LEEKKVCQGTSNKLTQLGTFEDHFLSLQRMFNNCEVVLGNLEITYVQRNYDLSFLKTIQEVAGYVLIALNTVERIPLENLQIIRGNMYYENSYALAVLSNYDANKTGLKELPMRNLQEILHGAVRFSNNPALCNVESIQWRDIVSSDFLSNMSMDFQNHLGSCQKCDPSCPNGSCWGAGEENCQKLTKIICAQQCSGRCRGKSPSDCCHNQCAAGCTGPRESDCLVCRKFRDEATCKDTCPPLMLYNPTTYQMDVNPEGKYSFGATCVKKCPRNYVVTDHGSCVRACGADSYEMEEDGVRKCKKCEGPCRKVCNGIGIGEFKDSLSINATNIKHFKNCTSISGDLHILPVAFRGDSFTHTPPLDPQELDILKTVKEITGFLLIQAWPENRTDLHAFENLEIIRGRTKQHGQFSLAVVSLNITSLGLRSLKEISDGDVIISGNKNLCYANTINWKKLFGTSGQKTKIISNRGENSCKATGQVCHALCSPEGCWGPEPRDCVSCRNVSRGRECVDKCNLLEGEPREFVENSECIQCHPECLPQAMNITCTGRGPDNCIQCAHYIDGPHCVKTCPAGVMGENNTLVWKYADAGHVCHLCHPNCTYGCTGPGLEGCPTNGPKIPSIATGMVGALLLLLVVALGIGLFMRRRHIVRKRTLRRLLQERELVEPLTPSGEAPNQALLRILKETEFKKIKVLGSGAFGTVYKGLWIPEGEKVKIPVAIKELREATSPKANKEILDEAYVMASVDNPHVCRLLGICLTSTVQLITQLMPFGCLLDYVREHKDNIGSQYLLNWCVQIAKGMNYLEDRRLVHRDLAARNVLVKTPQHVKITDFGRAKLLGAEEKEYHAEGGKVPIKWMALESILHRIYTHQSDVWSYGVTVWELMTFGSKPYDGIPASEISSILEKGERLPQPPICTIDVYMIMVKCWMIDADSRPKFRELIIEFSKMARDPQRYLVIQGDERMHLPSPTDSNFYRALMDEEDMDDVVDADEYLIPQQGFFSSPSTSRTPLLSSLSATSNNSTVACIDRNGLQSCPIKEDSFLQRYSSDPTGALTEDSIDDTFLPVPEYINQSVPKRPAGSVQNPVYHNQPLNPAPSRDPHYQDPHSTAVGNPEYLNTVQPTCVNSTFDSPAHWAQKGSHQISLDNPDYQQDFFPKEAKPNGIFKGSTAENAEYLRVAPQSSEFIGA
# assay explanation: Growth inhibitory activity of compounds on BaF3 cell lines stably transfected with kinase (MTS, 48 h)
# Type: cell-based
# experimental parameters: BaF3 cells stably transfected with EGFR L858R, read-out: IC50, growth inhibition, L858R
pIC50: −log10 of the molar value.

Example molecules with recorded pIC50:
In [3]: df
Out[3]:
                           molecular_string  measure  result
0  CCN(c1c(Nc2nc(Nc3cc(C)c(N4CCC(N(C)C)CC4)cc3OC)ncc2Cl)ccc2nccnc12)S(C)(=O)=O    pIC50  ≥ 7.30
1  COc1cc(N2CCN(C)CC2)c(C)cc1Nc1ncc(F)c(Nc2ccc3nccnc3c2N(C)S(C)(=O)=O)n1    pIC50  ≥ 7.30
2  CCc1cc(Nc2ncc(C3CC3)c(Nc3ccc4nccnc4c3N(C)S(C)(=O)=O)n2)c(OC)cc1N1CCC(N(C)C)CC1    pIC50  ≥ 7.30

Let us move to another entry and its pIC50.
Challenge: Value lookup for pIC50; key = CCN(c1c(Nc2nc(Nc3cc(C)c(N4CCC(N(C)C)CC4)cc3OC)ncc2Br)ccc2nccnc12)S(C)(=O)=O
Response given: 6.30 to 7.30
